test system: ATP; test: switch fluorescence ratio, 500 uM ATP over buffer (Cy3 cluster intensity, sum of 5 cycles each) (fold (ratio)); higher = stronger signal-on switching upon ATP binding; sequences stand for … in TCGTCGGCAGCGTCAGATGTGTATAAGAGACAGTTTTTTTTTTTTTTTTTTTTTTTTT…TC; settings: aptamer strand: ATP DNA aptamer (quencher-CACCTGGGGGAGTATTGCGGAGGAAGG + anchor), 100 nM annealed; ATP concentration: 500 uM;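 note: ATP exposure 15 min at 22 °C before imaging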
Collected switch fluorescence ratio values appear next to each entry.
// return just the number, without any unit appended

Known results for sequences:
[[record]]
polymer_sequence = "GGATGGGCTA"
reported_value = 0.999

[[record]]
polymer_sequence = "TATTGGGTGG"
reported_value = 0.992

[[record]]
polymer_sequence = "TGTTGGTATG"
reported_value = 0.976

[[record]]
polymer_sequence = "GGTCTCCTTT"
reported_value = 0.971

[[record]]
polymer_sequence = "ATCTTTCGAA"
reported_value = 1.03

[[record]]
polymer_sequence = "ACGGACCCGG"
reported_value = 1.36

[[record]]
polymer_sequence = "AGGGATCGGG"
reported_value = 1

[[record]]
polymer_sequence = "CAGGCGCTCT"
reported_value = 1.04


Incoming: I am curious: what switch fluorescence ratio value has been reported for ACTATCTATT ?
Outgoing: 0.997

Incoming: I am curious: what switch fluorescence ratio value has been reported for GCTAGGACGT ?
Outgoing: 0.997

Incoming: I am curious: what switch fluorescence ratio value has been reported for GGATGTGTTT ?
Outgoing: 0.999

Incoming: I am curious: what switch fluorescence ratio value has been reported for TGTGGCAACG ?
Outgoing: 0.974

Incoming: I am curious: what switch fluorescence ratio value has been reported for CCCGGCTGGT ?
Outgoing: 0.996
